Parameter normalized growth: see the listing below.
- testDescription: chemical genetic growth profiling, strain panel (AID 1159580);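 further: tested at 20 µM; growth read once vehicle control cultures reached saturation at 30 °C; 1 = growth at the plate median or of vehicle wells; lower values mean less growth of the strain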
- details: S. cerevisiae deletion strains, growth OD, locus YOR136W, strain idh2, stronger effect = lower value
About 2,000 (36%) of roughly 5,500 compounds were called active. About 18% were inconclusive and are not listed. This is one part of the list.
Number, no unit, nothing else.

Some solved entries appear below for comparison.
Consider the compound CC(C)N(CCC(C(N)=O)(c1ccccc1)c1ccccn1)C(C)C (stereo unspecified) . State its measured normalized growth.
1.01

Consider the compound Cc1ccccc1OCC(O)CO (stereo unspecified) . State its measured normalized growth.
0.998

Consider the compound O=C(O[C@@H]1Cc2c(O)cc(O)cc2O[C@@H]1c1cc(O)c(=O)c2c(O)c(O)cc([C@H]3Oc4cc(O)cc(O)c4C[C@H]3O)c2c1)c1cc(O)c(O)c(O)c1 . State its measured normalized growth.
0.929

Consider the compound CC(C)c1c(O)ccc2c1CCC1[C@@](C)(CO)CCC[C@]21C (stereo partly specified) . State its measured normalized growth.
0.966

Consider the compound NC(=O)NCCCC(N)C(=O)O (stereo unspecified) . State its measured normalized growth.
0.988

Moving on to another compound below.
Consider the compound COC(=O)C1OC(=O)C2OC23C1(C)CCC1C2(C)C(OC(C)=O)CC(OC(C)=O)C(C)(C)C2CC(=O)C13C (stereo unspecified) . State its measured normalized growth.
0.985
